FYI, the data here is from PubChem BioAssay (NCI).

Test system: CCRF-CEM leukemia
Test: NCI-60 one-dose screen, 48 h
Conditions: 10 µM unless noted
Compounds without any hit were thinned out: in the full panel of roughly 83,000, 20% have a hit. The source made the active and inactive calls. How the source made its calls: active means growth percent below 10; inactive means the rest.
Outcome codes: active, inactive

- COMPOUND: "O=C(c1cc2ccccc2o1)c1nn(-c2ccccc2)/c(=N/N=Cc2cn(-c3ccccc3)nc2-c2cc3ccccc3oc2=O)s1"
  LABEL: "inactive"
- COMPOUND: "O=C(NCCCN1CCOCC1)c1cccc(N2C(=O)/C(=C/c3ccc(F)cc3)SC2=S)c1"
  LABEL: "inactive"
- COMPOUND: "COc1ccc(C(=O)Nc2ncc(Cc3ccc(F)cc3)s2)cc1"
  LABEL: "inactive"
- COMPOUND: "CN1C(=O)/C(=C/c2cn(-c3ccccc3)nc2-c2ccccc2)SC1=S"
  LABEL: "inactive"
- COMPOUND: "C=C1C(=O)O[C@H]2[C@H]1CC/C(COC(=O)NCc1cc[nH]c1)=C\\CC[C@@]1(C)O[C@@H]21"
  LABEL: "active"
- COMPOUND: "Cn1ccc2c3c(ccc21)CC3=O"
  LABEL: "inactive"
- COMPOUND: "Cc1nc2sc(C(=O)Nc3cccc(Cl)c3C)c(N)c2cc1C(=O)c1ccccc1"
  LABEL: "active"
- COMPOUND: "Cc1cc2c(O)c(-c3cccc(Cl)c3)c3sc(=O)oc3c2cc1C"
  LABEL: "inactive"
- COMPOUND: "O=C1/C(=C/c2ccc(F)cc2)COc2ccc(O)cc21"
  LABEL: "active"
- COMPOUND: "O=C1Nc2ccccc2/C1=C\\c1nc(-c2ccccc2F)n2ccccc12"
  LABEL: "inactive"
- COMPOUND: "CN(C)CCNC(=O)c1cccc(-c2cnc3ccc(-c4ccc5c(c4)OCO5)nn23)c1"
  LABEL: "inactive"
- COMPOUND: "O=C(O)c1ccc(-n2cc(/C=N/Nc3ccc(F)cc3)c(-c3cc4ccccc4oc3=O)n2)cc1"
  LABEL: "inactive"
- COMPOUND: "CN1CCN(Cc2ccc(NC(=O)c3cncc(C#Cc4cnc(N)c5ccccc45)c3)cc2C(F)(F)F)CC1"
  LABEL: "active"
- COMPOUND: "C=CCn1c(SCC(=O)NCc2cc(C)c(O)c(C)c2)nc2ccc(Cl)cc2c1=O"
  LABEL: "inactive"
- COMPOUND: "O=C(Cn1cc(CN2C(=O)c3ccccc3S2(=O)=O)nn1)Nc1nc2ccccc2s1"
  LABEL: "inactive"
- COMPOUND: "Cc1ccc(Cc2cnc(NC(=O)c3cc(Br)cs3)s2)cc1"
  LABEL: "inactive"
- COMPOUND: "Clc1ccc(CNc2c3ccccc3nc3ccccc23)cc1"
  LABEL: "inactive"
- COMPOUND: "O=C1c2cccnc2C(=O)c2c1c(C(=O)NCCn1ccnc1)c1ccccn21"
  LABEL: "inactive"
- COMPOUND: "CC1=C(CCC(C)N(C)Cc2ccc(OCCCN3CCCC3)cc2)C(C)(C)CCC1 (stereo not given)"
  LABEL: "inactive"
- COMPOUND: "Cc1ccccc1/C=C1\\CN(C(=O)OC(C)(C)C)C/C(=C\\c2ccccc2C)C1=O"
  LABEL: "active"
- COMPOUND: "CN1CCN(c2ccc(C(=O)Nc3cccc(C#Cc4cccc5[nH]nc(N)c45)c3)cc2C(F)(F)F)CC1"
  LABEL: "active"
- COMPOUND: "N#C/C(=C\\c1ccc(Br)cc1)n1nnc2ccc(F)cc21"
  LABEL: "active"
- COMPOUND: "CCCCCOc1ccc(C(=O)/C(Br)=C/C(=O)O)cc1"
  LABEL: "inactive"
- COMPOUND: "COCCNC(=O)c1ccc(-c2nc3ccc4[nH]ncc4c3c3c2CCCC3)cc1"
  LABEL: "inactive"
- COMPOUND: "N#Cc1cccc(-c2c(-c3ccc4ccccc4c3)oc3ccccc3c2=O)c1"
  LABEL: "inactive"
- COMPOUND: "COC(=O)[C@]1(C)CCC[C@]2(C)[C@H]3C[C@H]4C(C(C)C)=C[C@]3(CC[C@H]21)[C@H]1[C@@H]4[C@@H](OCCC#N)CC[C@@H]1OCCC#N"
  LABEL: "inactive"
- COMPOUND: "O=C1/C(=C/c2ccccc2Br)COc2ccc(O)c(O)c21"
  LABEL: "active"
- COMPOUND: "COc1ccc(/C=C2\\C(=O)N=C3N2NC(c2cc(Br)ccc2O)C=C(C)N3c2ccccc2)cc1 (stereo not given)"
  LABEL: "inactive"
- COMPOUND: "CC(C)(C)[Si](C)(C)O[C@H]1C(=O)C=CN2CC=C[C@@H]12"
  LABEL: "inactive"
- COMPOUND: "CN1C(=O)N(C)C2Nn3c(s/c(=C\\c4ccc(C(F)(F)F)cc4)c3=O)=NC21 (stereo not given)"
  LABEL: "inactive"
- COMPOUND: "O=C(Cn1c(=O)sc2nc3ccccc3nc21)Nc1ncc(Cc2cccc(Cl)c2Cl)s1"
  LABEL: "inactive"
- COMPOUND: "CCCCCCC1(C)NCCO1 (stereo not given)"
  LABEL: "inactive"
- COMPOUND: "Cc1ccccc1Cn1cnc2ccc(-c3cc(NC(=O)c4ccc(NC5CCN(C)CC5)cc4)n[nH]3)cc21"
  LABEL: "inactive"
- COMPOUND: "N#Cc1c(-c2ccc(Cl)cc2)nc(NN=Cc2cccc(O)c2)nc1N1CCOCC1"
  LABEL: "inactive"
- COMPOUND: "Fc1ccc(Nc2nc3nonc3nc2Nc2ccc(I)cc2)cc1"
  LABEL: "active"
- COMPOUND: "CCN(C(=O)N1CCN(c2cc3c(cc2F)c(=O)c(C(=O)O)cn3C2CC2)CC1)c1nc(-c2ccc(Cl)cc2)cs1"
  LABEL: "inactive"
- COMPOUND: "O=C(Cn1c(-c2ccc([N+](=O)[O-])cc2)nc2ccccc21)NNC(=O)c1cccnc1"
  LABEL: "inactive"
- COMPOUND: "O=C1c2cc(Cl)ccc2S(=O)(=O)c2c(NCCCNCCO)nc3ccccc3c21"
  LABEL: "active"
- COMPOUND: "CNC(=O)c1cc(Oc2ccc3c(c2)sc2nc(-c4cc(OC)c(OC)c(OC)c4)cn23)ccn1"
  LABEL: "inactive"
- COMPOUND: "Nc1nc(=S)c2ncn(C3OC(COP(=O)(O)O)C(O)C3O)c2[nH]1 (stereo not given)"
  LABEL: "inactive"
